target: Signal transducer and activator of transcription 5B (Homo sapiens, UniProt P51692)
Sequence (P51692 whole entry): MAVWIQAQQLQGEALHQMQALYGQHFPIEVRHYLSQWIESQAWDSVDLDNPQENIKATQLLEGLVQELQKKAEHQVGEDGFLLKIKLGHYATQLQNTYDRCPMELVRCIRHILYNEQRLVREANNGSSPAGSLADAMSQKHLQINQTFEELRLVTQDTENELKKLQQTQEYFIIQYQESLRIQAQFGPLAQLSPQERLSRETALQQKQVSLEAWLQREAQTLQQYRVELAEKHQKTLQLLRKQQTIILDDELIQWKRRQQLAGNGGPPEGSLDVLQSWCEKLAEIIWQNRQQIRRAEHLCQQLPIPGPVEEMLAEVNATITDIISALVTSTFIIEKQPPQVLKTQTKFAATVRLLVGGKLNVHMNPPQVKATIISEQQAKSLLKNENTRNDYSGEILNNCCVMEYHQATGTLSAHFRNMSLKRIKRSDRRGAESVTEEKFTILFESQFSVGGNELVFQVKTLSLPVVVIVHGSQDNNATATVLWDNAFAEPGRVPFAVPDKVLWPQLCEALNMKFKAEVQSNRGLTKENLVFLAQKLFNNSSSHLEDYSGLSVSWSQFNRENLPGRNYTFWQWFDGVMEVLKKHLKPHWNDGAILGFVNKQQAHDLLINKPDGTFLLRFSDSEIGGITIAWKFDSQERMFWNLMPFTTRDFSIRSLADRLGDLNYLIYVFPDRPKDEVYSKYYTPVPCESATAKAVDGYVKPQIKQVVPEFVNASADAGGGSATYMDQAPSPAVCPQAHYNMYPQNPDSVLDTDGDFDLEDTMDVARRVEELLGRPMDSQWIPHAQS
Please map values of Ki to classes as shown: c1: < 2 µM; c2: ≥ 2 µM and < 6 µM; c3: ≥ 6 µM

Use these answered entries as a reference point.
CC(C)(C)[C@H](NC(=O)c1cc2cc(C(F)(F)P(=O)(O)O)ccc2s1)C(=O)N1CCC[C@H]1C(=O)N1CCCc2ccccc21    c3
CC(C)(C)[C@H](NC(=O)c1cc2cc(C(F)(F)P(=O)(O)O)ccc2s1)C(=O)N1CCC[C@H]1C(=O)Nc1ccccc1    c3
CN(C)C(=O)CCN(C(=O)[C@@H]1CCCN1C(=O)[C@H](CCc1ccccc1)NC(=O)c1cc2cc(C(F)(F)P(=O)(O)O)ccc2s1)c1ccc(-c2nccs2)cc1    c1
CC(C)(C)[C@H](NC(=O)c1cc2cc(C(F)(F)P(=O)(O)O)ccc2s1)C(=O)N1CCC[C@H]1C(=O)N(CCC(=O)NCCCC#Cc1cccc2c1CN(C1CCC(=O)NC1=O)C2=O)c1ccc2scnc2c1 (stereo partly specified)    c1

Hi there! Could you help me figure out the category for `CC(C)(C)[C@H](NC(=O)c1cc2cc(C(F)(F)P(=O)(O)O)ccc2s1)C(=O)N1CCC[C@H]1C(=O)N1CCCOCC1` please?
c3

Hi there! Could you help me figure out the category for `CN(C)C(=O)CCN(C(=O)[C@@H]1CCCN1C(=O)[C@@H](NC(=O)c1cc2cc(C(F)(F)P(=O)(O)O)ccc2s1)c1ccccc1)c1ccc(-c2nccs2)cc1` please?
c2

Hi there! Could you help me figure out the category for `CN(C)C(=O)CCN(C(=O)[C@@H]1CCCN1C(=O)[C@@H](NC(=O)c1cc2cc(C(F)(F)P(=O)(O)O)ccc2s1)C(C)(C)C)c1ccc2scnc2c1` please?
c1

Hi there! Could you help me figure out the category for `CN(C)C(=O)CCN(C(=O)[C@@H]1CCCN1C(=O)[C@@H](NC(=O)c1cc2cc(C(F)(F)P(=O)(O)O)ccc2s1)C(C)(C)C)c1ccccc1` please?
c3

Hi there! Could you help me figure out the category for `CN(C)C(=O)CCN(C(=O)[C@@H]1CCCN1C(=O)[C@@H](NC(=O)c1cc2cc(C(F)(F)P(=O)(O)O)ccc2s1)C1CC1)c1ccc(-c2nccs2)cc1` please?
c2

---

system: MOLM-13; assay: Antiproliferative activity against human MOLM-13 cells assessed as cell growth inhibition measured for 4 days by celltiter-glo assay; conditions: MOLM-13, 96 h
pIC50: −log10 of the molar value.
MEASURED METRIC: pIC50

Specify reported pIC50 for the compound shown: CN(CCCC#Cc1cccc2c1CN(C1CCC(=O)NC1=O)C2=O)C(=O)CCN(C(=O)[C@@H]1CCCN1C(=O)[C@@H](NC(=O)c1cc2cc(C(F)(F)P(=O)(O)O)ccc2s1)C(C)(C)C)c1ccc(-c2nccs2)cc1 (stereo partly specified)
< 4.82

---

Molecular target: Signal transducer and activator of transcription 5A (Homo sapiens)
Sequence (P42229 whole entry): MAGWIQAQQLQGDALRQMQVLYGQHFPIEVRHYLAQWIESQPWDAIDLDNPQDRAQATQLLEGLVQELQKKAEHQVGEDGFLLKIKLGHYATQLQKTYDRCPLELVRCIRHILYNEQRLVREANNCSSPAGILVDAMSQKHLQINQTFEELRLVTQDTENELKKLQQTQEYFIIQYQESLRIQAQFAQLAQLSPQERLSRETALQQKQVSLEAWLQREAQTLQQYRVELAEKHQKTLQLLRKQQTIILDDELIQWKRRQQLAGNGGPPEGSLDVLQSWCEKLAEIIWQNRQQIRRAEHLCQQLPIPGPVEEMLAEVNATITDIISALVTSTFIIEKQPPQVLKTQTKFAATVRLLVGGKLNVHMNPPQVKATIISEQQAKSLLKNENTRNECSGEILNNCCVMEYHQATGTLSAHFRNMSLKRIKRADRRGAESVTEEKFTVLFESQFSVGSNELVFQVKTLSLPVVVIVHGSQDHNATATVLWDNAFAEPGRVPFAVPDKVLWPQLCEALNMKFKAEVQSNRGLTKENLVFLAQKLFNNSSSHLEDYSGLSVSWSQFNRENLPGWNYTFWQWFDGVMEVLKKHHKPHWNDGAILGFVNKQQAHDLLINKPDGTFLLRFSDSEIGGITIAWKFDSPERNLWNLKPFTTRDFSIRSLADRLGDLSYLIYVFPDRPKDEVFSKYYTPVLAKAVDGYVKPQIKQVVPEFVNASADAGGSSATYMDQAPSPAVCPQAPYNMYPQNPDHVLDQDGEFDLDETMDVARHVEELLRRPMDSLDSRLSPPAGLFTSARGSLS
Experiment: Induction of STAT5 degradation in human SKNO-1 cells measured for 18 hrs by Western blot analysis
Type: cell-based
MEASURED METRIC: DC50

Specify reported DC50 for the compound shown: CC(C)(C)[C@H](NC(=O)c1cc2cc(C(F)(F)P(=O)(O)O)ccc2s1)C(=O)N1CCC[C@H]1C(=O)N(CCCCCCCC#Cc1cccc2c1CN(C1CCC(=O)NC1=O)C2=O)c1ccc(-c2nccs2)cc1 (some centres not stated)
> 5 µM

Specify reported DC50 for the compound shown: CC(C)(C)[C@H](NC(=O)c1cc2cc(C(F)(F)P(=O)(O)O)ccc2s1)C(=O)N1CCC[C@H]1C(=O)N(CCC(=O)N1CC(CC#Cc2cccc3c2CN(C2CCC(=O)NC2=O)C3=O)C1)c1ccc(Br)cc1 (some centres not stated)
> 5 µM

Specify reported DC50 for the compound shown: CN(CCCC#Cc1cccc2c1CN(C1CCC(=O)NC1=O)C2=O)C(=O)CCN(C(=O)[C@@H]1CCCN1C(=O)[C@@H](NC(=O)c1cc2cc(C(F)(F)P(=O)(O)O)ccc2s1)C(C)(C)C)c1ccc2ccccc2c1 (some centres not stated)
0.13 µM

Specify reported DC50 for the compound shown: CC(C)(C)[C@H](NC(=O)c1cc2cc(C(F)(F)P(=O)(O)O)ccc2s1)C(=O)N1CCC[C@H]1C(=O)N(CCC(=O)NCCCC#Cc1cccc2c1CN(C1CCC(=O)NC1=O)C2=O)c1cccc(C#N)c1 (some centres not stated)
> 5 µM

Specify reported DC50 for the compound shown: CC(C)(C)[C@H](NC(=O)c1cc2cc(C(F)(F)P(=O)(O)O)ccc2s1)C(=O)N1CCC[C@H]1C(=O)N(CCC(=O)NCCCC#Cc1cccc2c1CN(C1CCC(=O)NC1=O)C2=O)c1ccc2occc2c1 (some centres not stated)
0.33 µM

Specify reported DC50 for the compound shown: CC(C)(C)[C@H](NC(=O)c1cc2cc(C(F)(F)P(=O)(O)O)ccc2s1)C(=O)N1CCC[C@H]1C(=O)N(CCC(=O)N1CCC(C#Cc2cccc3c2CN(C2CCC(=O)NC2=O)C3=O)CC1)c1ccc(Br)cc1 (some centres not stated)
> 5 µM

Specify reported DC50 for the compound shown: CC(C)(C)[C@H](NC(=O)c1cc2cc(C(F)(F)P(=O)(O)O)ccc2s1)C(=O)N1CCC[C@H]1C(=O)N(CCC(=O)NCCCC#Cc1cccc2c1CN(C1CCC(=O)NC1=O)C2=O)c1cccc(C(F)(F)F)c1 (some centres not stated)
> 5 µM
